Reported melting point by item:
experimental-readout: melting point

Cc1nnc(N2N=C(c3ccc(N)cc3)c3cc4c(cc3C[C@H]2C)OCO4)s1 (hydrate or solvate) | 168 to 170 °C
Cc1cc(C2=NN(c3nnc(C(C)C)s3)[C@H](C)Cc3cc4c(cc32)OCO4)ccc1N | 134 to 140 °C
CC1=NN=C(N2N=C(c3ccc(N)cc3)c3cc4c(cc3CC2C)OCO4)SC1 (racemic) | 154 to 157 °C
COCc1nnc(N2N=C(c3ccc(N)c(Cl)c3)c3cc4c(cc3C[C@H]2C)OCO4)s1 | 105 to 109 °C
Cc1cnc(N2N=C(c3ccc(N)cc3)c3cc4c(cc3CC2C)OCO4)s1 (racemic) | 165 to 167 °C
CC1Cc2cc3c(cc2C(c2ccc(N)cc2)=NN1c1nccs1)OCO3 (racemic) | 187 to 190 °C
Cc1cc(C2=NN(c3nnc(CN)s3)[C@H](C)Cc3cc4c(cc32)OCO4)ccc1N | 139 to 140 °C
Cc1csc(N2N=C(c3ccc(N)cc3)c3cc(Cl)ccc3CC2C)n1 (racemic) | 173 to 175 °C

###

experimental-readout: melting point

COCc1nnc(N2N=C(c3ccc(N)c(C)c3)c3cc4c(cc3C[C@H]2C)OCO4)s1 | 171 to 172 °C
COc1ccc2c(c1)C(c1ccc(N)cc1)=NN(c1nnc(C)s1)C(C)C2 (racemic) | 180 to 184 °C
Cc1cc(C2=NN(c3nnc(CO)s3)[C@H](C)Cc3cc4c(cc32)OCO4)ccc1N | 184 to 186 °C

###

ED50 values by entry
Test system: CD1 mice
Test: Anticonvulsant activity, bicuculline induced seizures
Format: in vivo
Conditions: Mus musculus; po.; read-out: Bicuculline ED50
experimental-readout: ED50 (mg/kg)

C[C@@H]1Cc2cc3c(cc2C(c2ccc(N)cc2)=NN1C1=NCCS1)OCO3 | 18.1
Cc1nnc(N2N=C(c3ccc(N)cc3)c3cc4c(cc3C[C@H]2C)OCO4)s1 | 4.6
Cc1nnc(N2N=C(c3ccc(N)c(C)c3)c3cc4c(cc3C[C@H]2C)OCO4)s1 | 2.5
Cc1cc(C2=NN(c3nncs3)[C@H](C)Cc3cc4c(cc32)OCO4)ccc1N | 12.7
Cc1nnc(N2N=C(c3ccc(N)c(Cl)c3)c3cc4c(cc3C[C@H]2C)OCO4)s1 | 8.44
CC(=O)N1N=C(c2ccc(N)cc2)c2cc3c(cc2C[C@H]1C)OCO3 [GYKI 53773, reference compound] | 14.6
C[C@@H]1Cc2cc3c(cc2C(c2ccc(N)cc2)=NN1c1nccs1)OCO3 | 31
CCc1nnc(N2N=C(c3ccc(N)cc3)c3cc4c(cc3C[C@H]2C)OCO4)s1 | 17.1
CCc1nnc(N2N=C(c3ccc(N)c(C)c3)c3cc4c(cc3C[C@H]2C)OCO4)s1 | 5.79
C[C@@H]1Cc2cc3c(cc2C(c2ccc(N)cc2)=NN1c1nncs1)OCO3 | 17
Cc1nnc(N2N=C(c3ccc(N)cc3)c3cc4c(cc3C[C@H]2C)OCO4)o1 | 25.8
COCc1nnc(N2N=C(c3ccc(N)c(C)c3)c3cc4c(cc3C[C@H]2C)OCO4)s1 | 10.6
CCCc1nnc(N2N=C(c3ccc(N)c(C)c3)c3cc4c(cc3C[C@H]2C)OCO4)s1 | 13.3
